# reported solubility; entries follow
# PROCEDURE_TEXT: Solubility in Cl free phosphate buffer pH 6.8
# Type: physicochemical
# SETTINGS: aqueous buffer; Cl free phosphate buffer (0.067 M) pH 6.8

# count of solved cases: 2
[[record]]
chem_smiles = "CCCCCCCCC(=O)O[C@@]1(C#Cc2cccc(C)c2)CCC[C@@H]2[C@H]1CCN2C(=O)OC"
value = "< 2 µg/mL"

[[record]]
chem_smiles = "CCCCCCC(=O)O[C@@]1(C#Cc2cccc(C)c2)CCC[C@@H]2[C@H]1CCN2C(=O)OC"
value = "< 2 µg/mL"


Then there is this compound:
Kindly note the recorded solubility for CCCCCCCCCCCC(=O)O[C@@]1(C#Cc2cccc(C)c2)CCC[C@@H]2[C@H]1CCN2C(=O)OC , which is < 2 µg/mL

====

# PROCEDURE_TEXT: Solubility in Cl free phosphate buffer pH 6.8
# Type: physicochemical
# SETTINGS: aqueous buffer; Cl free phosphate buffer (0.067 M) pH 6.8
REPORTED_METRIC: solubility

[[record]]
molecule = "COC(=O)N1CC[C@@H]2[C@H]1CCC[C@]2(C#Cc1cccc(C)c1)OC(=O)c1ccncc1 [Example 45]"
reported_metric = "solubility"
value = "< 2 µg/mL"

[[record]]
molecule = "COC(=O)N1CC[C@@H]2[C@H]1CCC[C@]2(C#Cc1cccc(C)c1)OC(=O)CCC(=O)N(C)C [Example 59]"
reported_metric = "solubility"
value = "< 2 µg/mL"


Then there is this molecule:
Kindly note the recorded solubility for CCCCCCCC(=O)O[C@@]1(C#Cc2cccc(C)c2)CCC[C@@H]2[C@H]1CCN2C(=O)OC [Example 18] , which is < 2 µg/mL
